- ASSAYED TARGET: human CD33 I176A (human, UniProt P20138 18-364)
- Sequence (P20138 18-364 I176A limits assumed): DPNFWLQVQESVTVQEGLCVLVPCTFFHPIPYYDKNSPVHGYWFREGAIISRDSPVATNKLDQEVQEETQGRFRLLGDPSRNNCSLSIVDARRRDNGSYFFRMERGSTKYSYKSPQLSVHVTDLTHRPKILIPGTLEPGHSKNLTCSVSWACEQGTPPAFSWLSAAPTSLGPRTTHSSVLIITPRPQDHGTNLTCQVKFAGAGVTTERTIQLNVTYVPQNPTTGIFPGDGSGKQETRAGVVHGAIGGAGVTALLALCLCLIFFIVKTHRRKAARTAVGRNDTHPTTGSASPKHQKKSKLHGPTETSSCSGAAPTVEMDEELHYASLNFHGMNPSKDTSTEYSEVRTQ
- METHOD DESCRIPTION: alanine scan, flow cytometry, HEK293-T;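 also: antibody binding to each alanine-substituted CD33 mutant expressed transiently in HEK293-T, read as fluorescence minus background, mean of duplicates, relative to wild-type CD33 set as 100%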
Catalogue of Mean % WT Binding readings, one per entry.
Form entry: enter the amount, then its unit.

Mean % WT Binding recorded for this binder, Refmab #4 (antibody, V domains shown, In the alanine scan antibodies were used as IgG or Fab) VH: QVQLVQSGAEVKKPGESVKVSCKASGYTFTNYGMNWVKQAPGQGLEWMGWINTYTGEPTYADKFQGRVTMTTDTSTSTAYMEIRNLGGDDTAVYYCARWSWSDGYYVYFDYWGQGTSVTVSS VL: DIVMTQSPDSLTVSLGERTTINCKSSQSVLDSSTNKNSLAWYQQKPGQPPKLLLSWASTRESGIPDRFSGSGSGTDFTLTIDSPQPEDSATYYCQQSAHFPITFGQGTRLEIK , is 124%

More entries:
The reported value for Refmab #2 (antibody, V domains shown, In the alanine scan antibodies were used as IgG or Fab) VH: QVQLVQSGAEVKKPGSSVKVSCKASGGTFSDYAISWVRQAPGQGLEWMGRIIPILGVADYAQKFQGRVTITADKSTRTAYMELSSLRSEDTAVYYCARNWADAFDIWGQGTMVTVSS VL: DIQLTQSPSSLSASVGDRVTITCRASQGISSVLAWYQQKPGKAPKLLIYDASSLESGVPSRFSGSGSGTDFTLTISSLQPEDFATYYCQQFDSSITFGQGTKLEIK in terms of Mean % WT Binding is 124%

The value of Mean % WT Binding measured for the binder Refmab #1 (antibody, V domains shown, In the alanine scan antibodies were used as IgG or Fab; also called hP67.6) VH: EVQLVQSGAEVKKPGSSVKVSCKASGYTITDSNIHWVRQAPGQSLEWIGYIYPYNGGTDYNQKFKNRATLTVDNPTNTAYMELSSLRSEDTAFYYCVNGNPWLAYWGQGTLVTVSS VL: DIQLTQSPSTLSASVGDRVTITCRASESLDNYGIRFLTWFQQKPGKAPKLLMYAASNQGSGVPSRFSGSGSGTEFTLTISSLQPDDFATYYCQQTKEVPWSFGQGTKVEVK turned out to be 93.5%

Form: binder = Refmab #3 (antibody, V domains shown, In the alanine scan antibodies were used as IgG or Fab) VH: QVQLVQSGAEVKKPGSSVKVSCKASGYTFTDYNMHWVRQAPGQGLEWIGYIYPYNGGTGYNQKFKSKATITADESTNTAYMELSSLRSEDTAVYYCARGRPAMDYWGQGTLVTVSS VL: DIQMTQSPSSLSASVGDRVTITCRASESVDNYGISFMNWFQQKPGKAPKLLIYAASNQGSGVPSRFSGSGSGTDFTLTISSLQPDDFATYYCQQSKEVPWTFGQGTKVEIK ; Mean % WT Binding = 100%
